# Target Desc: recombinant TEAD3 protein (218-435, Uniprot ID: Q99594) (Homo sapiens (Human))
# Sequence (Q99594 218-435): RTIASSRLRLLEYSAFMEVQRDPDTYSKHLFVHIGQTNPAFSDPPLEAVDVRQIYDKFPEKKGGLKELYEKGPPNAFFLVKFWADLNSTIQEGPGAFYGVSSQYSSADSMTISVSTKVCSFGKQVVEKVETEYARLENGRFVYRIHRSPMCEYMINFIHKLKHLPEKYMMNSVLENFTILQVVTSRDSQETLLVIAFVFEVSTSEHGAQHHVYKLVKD
# Procedure Text: Thermal shift assay (protein melting point curve), TEAD3
# Assay type: binding
# Condition Parameters: 10 μM TEAD protein, 50 μM test compound
# Experimental: The ability of the compounds to increase the melting point of purified recombinant TEAD1/2/3/4 proteins is tested using a thermal shift assay. The strength of the compound's binding to the protein and the selectivity of the compound's binding to the four TEAD subtypes are evaluated by calculating the melting point shift ΔTm−° C. […] Based on the Δ Tm value, the ability of the compound to bind to the TEAD protein is divided into four levels: ++++, +++, ++, +. […]
Quantity: Δ T m (TEAD3)

>  <Compound>
CP(C)(=O)c1ccc(NC2CCc3cc(C(F)(F)F)ccc32)c(-c2ncccn2)c1 (stereo not shown) [Compound 42]

>  <Result>
+

$$$$
>  <Compound>
CP(C)(=O)c1ccc(Nc2ccc(C(F)(F)F)cc2)c(-c2nnc(COC3COC3)o2)c1 [Compound 57]

>  <Result>
+

$$$$
>  <Compound>
Cn1cnc(-c2cc(P3(=O)CCNCC3)ccc2Nc2ccc(C(F)(F)F)cc2)c1 [Compound 1]

>  <Result>
++

$$$$
>  <Compound>
CP(C)(=O)c1ccc(NC2CCC(F)(F)CC2)c(-c2nccc(OC3COC3)n2)c1 [Compound 30]

>  <Result>
+

$$$$

-- ask What value of Δ T m (TEAD3) has been recorded for this entry: CP(C)(=O)c1ccc(Nc2ccc(C(F)(F)F)cc2)c(-c2ccn(C3CCOCC3)n2)c1 [Compound 25]
-- reply ++

-- ask What value of Δ T m (TEAD3) has been recorded for this entry: CP(C)(=O)c1ccc(Nc2ccc(C(F)(F)F)cc2)c(-c2nccc(OCCO)n2)c1 [Compound 19]
-- reply ++

-- ask What value of Δ T m (TEAD3) has been recorded for this entry: CP(C)(=O)c1ccc(Nc2ccc(C(F)(F)F)cc2)c(-c2nccc(OC(F)F)n2)c1 [Compound 65]
-- reply +

-- ask What value of Δ T m (TEAD3) has been recorded for this entry: CP(C)(=O)c1ccc(NCc2ccc(C(F)(F)F)cc2)c(-c2cnn(C3COC3)c2)c1 [Compound 50]
-- reply ++

-- ask What value of Δ T m (TEAD3) has been recorded for this entry: CP(C)(=O)c1ccc(Nc2ccc(C(F)(F)F)cc2)c(-c2nccc(OC3CCOC3)n2)c1 (stereo not shown) [Compound 18]
-- reply +

-- ask What value of Δ T m (TEAD3) has been recorded for this entry: CP(C)(=O)c1ccc(Nc2ccc(C(F)(F)F)cc2)c(-c2csc(OC3COC3)n2)c1 [Compound 71]
-- reply +

-- ask What value of Δ T m (TEAD3) has been recorded for this entry: CP(C)(=O)c1ccc(NCc2cc(F)cc(F)c2)c(-c2nccc(OC3COC3)n2)c1 [Compound 62]
-- reply +

-- ask What value of Δ T m (TEAD3) has been recorded for this entry: CP(C)(=O)c1cc(-c2nccc(OC3COC3)n2)c(Nc2ccc(C(F)(F)F)cc2)s1 [Compound 24]
-- reply +

-- ask What value of Δ T m (TEAD3) has been recorded for this entry: CP(C)(=O)c1ccc(NCc2cccc(C(F)(F)F)c2)c(-c2nccc(OC3COC3)n2)c1 [Compound 52]
-- reply +

====

# Target Desc: recombinant TEAD4 protein (217-434, Uniprot ID: Q15561) (Homo sapiens (Human))
# Sequence (Q15561 217-434): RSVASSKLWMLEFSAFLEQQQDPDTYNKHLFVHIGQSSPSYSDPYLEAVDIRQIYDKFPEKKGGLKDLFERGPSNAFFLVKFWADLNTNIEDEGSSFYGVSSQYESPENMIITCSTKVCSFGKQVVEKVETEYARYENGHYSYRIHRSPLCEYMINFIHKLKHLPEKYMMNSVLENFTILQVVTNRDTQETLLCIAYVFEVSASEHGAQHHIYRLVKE
# Procedure Text: Thermal shift assay (protein melting point curve), TEAD4
# Type: binding
# Condition Parameters: 10 μM TEAD protein, 50 μM test compound
Quantity: Δ T m (TEAD4)

Some molecules with recorded Δ T m (TEAD4):
>  <Molecule>
CP(C)(=O)c1ccc(NCc2cc(F)cc(F)c2)c(-c2nccc(OC3COC3)n2)c1 [Compound 62]

>  <Target Desc>
recombinant TEAD4 protein (217-434, Uniprot ID: Q15561) (Homo sapiens (Human))

>  <Result>
+

$$$$
>  <Molecule>
CP(C)(=O)c1ccc(NCc2ccc(C(F)(F)F)cc2)c(-c2ncn(C3CCOCC3)n2)c1 [Compound 55]

>  <Target Desc>
recombinant TEAD4 protein (217-434, Uniprot ID: Q15561) (Homo sapiens (Human))

>  <Result>
++

$$$$
>  <Molecule>
CCP(=O)(CC)c1ccc(Nc2ccc(C(F)(F)F)cc2)c(-c2cn(C)cn2)c1 [Compound 76]

>  <Target Desc>
recombinant TEAD4 protein (217-434, Uniprot ID: Q15561) (Homo sapiens (Human))

>  <Result>
++++

$$$$
>  <Molecule>
CP(C)(=O)c1ccc(Nc2ccc(C(F)(F)F)cc2)c(-c2nccc(N3CC[C@H](O)C3)n2)c1 [Compound 9]

>  <Target Desc>
recombinant TEAD4 protein (217-434, Uniprot ID: Q15561) (Homo sapiens (Human))

>  <Result>
+++

$$$$
>  <Molecule>
CP(C)(=O)c1ccc(Nc2ccc(C(F)(F)F)cc2)c(-c2nccc(OC3COC3)c2C#N)c1 [Compound 36]

>  <Target Desc>
recombinant TEAD4 protein (217-434, Uniprot ID: Q15561) (Homo sapiens (Human))

>  <Result>
+++

$$$$
>  <Molecule>
CP(C)(=O)c1ccc(Nc2ccc(C(F)(F)F)cc2)c(-c2nnn(Cc3ccccn3)n2)c1 [Compound 3]

>  <Target Desc>
recombinant TEAD4 protein (217-434, Uniprot ID: Q15561) (Homo sapiens (Human))

>  <Result>
++

$$$$
>  <Molecule>
CP(C)(=O)c1ccc(NC23CC(C(F)(F)F)(C2)C3)c(-c2nccc(OC3COC3)n2)c1 [Compound 37]

>  <Target Desc>
recombinant TEAD4 protein (217-434, Uniprot ID: Q15561) (Homo sapiens (Human))

>  <Result>
++

$$$$
>  <Molecule>
Cc1nnc(-c2cc(P(C)(C)=O)ccc2NCc2ccc(C(F)(F)F)cc2)o1 [Compound 4]

>  <Target Desc>
recombinant TEAD4 protein (217-434, Uniprot ID: Q15561) (Homo sapiens (Human))

>  <Result>
+

$$$$
>  <Molecule>
CP(C)(=O)c1ccc(Nc2cccc(OC(F)(F)F)c2)c(-c2nccc(OC3COC3)n2)c1 [Compound 67]

>  <Target Desc>
recombinant TEAD4 protein (217-434, Uniprot ID: Q15561) (Homo sapiens (Human))

>  <Result>
+++

$$$$
>  <Molecule>
Cc1nc(-c2cc(P(C)(C)=O)ccc2NCc2cccc(C(F)(F)F)c2)no1 [Compound 49]

>  <Target Desc>
recombinant TEAD4 protein (217-434, Uniprot ID: Q15561) (Homo sapiens (Human))

>  <Result>
++

$$$$

-- ask What value of Δ T m (TEAD4) has been recorded for this entry: O=P1(c2ccc(Nc3ccc(C(F)(F)F)cc3)c(-c3ncccn3)c2)CC(CO)C1 (stereo not shown) [Compound 21]
-- reply ++++

-- ask What value of Δ T m (TEAD4) has been recorded for this entry: Cn1cnc(-c2cc(P3(=O)CCNCC3)ccc2Nc2ccc(C(F)(F)F)cc2)c1 [Compound 1]
-- reply +++

-- ask What value of Δ T m (TEAD4) has been recorded for this entry: CP(C)(=O)c1ccc(NCC2CCC(C(F)(F)F)CC2)c(-c2ncccn2)c1 (stereo not shown) [Compound 46]
-- reply ++

-- ask What value of Δ T m (TEAD4) has been recorded for this entry: CP(C)(=O)c1ccc(NC2CCc3cc(C(F)(F)F)ccc32)c(-c2ncccn2)c1 (stereo not shown) [Compound 42]
-- reply +

-- ask What value of Δ T m (TEAD4) has been recorded for this entry: Cc1nnc(-c2cc(P(C)(C)=O)ccc2Nc2ccc(C(F)(F)F)cc2)o1 [Compound 69]
-- reply ++

-- ask What value of Δ T m (TEAD4) has been recorded for this entry: CP(C)(=O)c1ccc(Nc2ccc(C(F)(F)F)cc2)c(-n2cc(C3CCOCC3)cn2)c1 [Compound 33]
-- reply ++

====

# Target Desc: recombinant TEAD2 protein (218-447, Uniprot ID: Q15562) (Homo sapiens (Human), UniProt Q15562)
# Sequence (Q15562 218-447): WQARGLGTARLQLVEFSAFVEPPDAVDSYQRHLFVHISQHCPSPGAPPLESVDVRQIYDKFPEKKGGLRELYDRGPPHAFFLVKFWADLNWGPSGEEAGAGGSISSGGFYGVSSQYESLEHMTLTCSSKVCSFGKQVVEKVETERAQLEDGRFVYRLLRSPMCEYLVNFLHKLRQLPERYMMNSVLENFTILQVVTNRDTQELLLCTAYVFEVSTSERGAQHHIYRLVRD
# Procedure Text: Thermal shift assay (protein melting point curve), TEAD2
# Type: binding
# Condition Parameters: 10 μM TEAD protein, 50 μM test compound
Quantity: Δ T m (TEAD2)

>  <Compound>
CP(C)(=O)c1ccc(Nc2ccc(C(F)(F)F)cc2)c(-c2nccc(OC(F)F)n2)c1 [Compound 65]

>  <Quantity>
Δ T m (TEAD2)

>  <Result>
++

$$$$
>  <Compound>
CP(C)(=O)c1ccc(NCc2ccc(C(F)(F)F)cc2)c(-n2cc(C3CCOCC3)cn2)c1 [Compound 58]

>  <Quantity>
Δ T m (TEAD2)

>  <Result>
+

$$$$
>  <Compound>
CP(C)(=O)c1cnc(Nc2ccc(C(F)(F)F)cc2)c(-c2nccc(OC3COC3)n2)c1 [Compound 39]

>  <Quantity>
Δ T m (TEAD2)

>  <Result>
+

$$$$
>  <Compound>
CP(C)(=O)c1ccc(NCc2ccc(C(F)(F)F)cc2)c(-c2cnn(C3COC3)c2)c1 [Compound 50]

>  <Quantity>
Δ T m (TEAD2)

>  <Result>
++

$$$$
>  <Compound>
O=P1(c2ccc(Nc3ccc(C(F)(F)F)cc3)c(-c3nccc(OC4COC4)n3)c2)CCNCC1 [Compound 60]

>  <Quantity>
Δ T m (TEAD2)

>  <Result>
+

$$$$
>  <Compound>
CP(C)(=O)c1ccc(Nc2ccc(C(F)(F)F)cc2)c(-c2nnn(Cc3ccccn3)n2)c1 [Compound 3]

>  <Quantity>
Δ T m (TEAD2)

>  <Result>
+

$$$$
>  <Compound>
CP(C)(=O)c1ccc(Nc2ccc(C(F)(F)F)cc2)c(-c2nccc(OC3COC3)c2C#N)c1 [Compound 36]

>  <Quantity>
Δ T m (TEAD2)

>  <Result>
+

$$$$
>  <Compound>
CP(C)(=O)c1ccc(NCc2cc(F)cc(F)c2)c(-c2ncccn2)c1 [Compound 44]

>  <Quantity>
Δ T m (TEAD2)

>  <Result>
++

$$$$
>  <Compound>
CCP(=O)(CC)c1ccc(Nc2ccc(C(F)(F)F)cc2)c(-c2cn(C)cn2)c1 [Compound 76]

>  <Quantity>
Δ T m (TEAD2)

>  <Result>
++++

$$$$
>  <Compound>
CP(C)(=O)c1ccc(Nc2cccc(OC(F)(F)F)c2)c(-c2nccc(OC3COC3)n2)c1 [Compound 67]

>  <Quantity>
Δ T m (TEAD2)

>  <Result>
++

$$$$

-- ask What value of Δ T m (TEAD2) has been recorded for this entry: CP(C)(=O)c1ccc(Nc2ccc(C(F)(F)F)cc2)c(-c2nccc(OCCO)n2)c1 [Compound 19]
-- reply ++

-- ask What value of Δ T m (TEAD2) has been recorded for this entry: Cc1nnc(-c2cc(P(C)(C)=O)ccc2NCc2ccc(C(F)(F)F)cc2)o1 [Compound 4]
-- reply ++

-- ask What value of Δ T m (TEAD2) has been recorded for this entry: CP(C)(=O)c1ccc(Nc2ccc(C(F)(F)F)cc2)c(-c2cn(C3COC3)cn2)c1 [Compound 70]
-- reply ++

-- ask What value of Δ T m (TEAD2) has been recorded for this entry: Cc1nnc(-c2cc(P(C)(C)=O)ccc2Nc2ccc(C(F)(F)F)cc2)o1 [Compound 69]
-- reply +

-- ask What value of Δ T m (TEAD2) has been recorded for this entry: CP(C)(=O)c1ccc(NCc2ccc(C(F)(F)F)cc2)c(-c2nccc(OC3COC3)n2)c1 [Compound 17]
-- reply ++

-- ask What value of Δ T m (TEAD2) has been recorded for this entry: CP(C)(=O)c1ccc(NCc2ccc(C(F)(F)F)cc2)c(-c2ncn(C3CCOCC3)n2)c1 [Compound 55]
-- reply +

-- ask What value of Δ T m (TEAD2) has been recorded for this entry: CP(C)(=O)c1ccc(OCc2ccc(C(F)(F)F)cc2)c(-c2nccc(OC3COC3)n2)c1 [Compound 20]
-- reply ++

-- ask What value of Δ T m (TEAD2) has been recorded for this entry: CP(C)(=O)c1ccc(Nc2ccc(C(F)(F)F)cc2)c(-c2nnc(COC3COC3)o2)c1 [Compound 57]
-- reply +
